# experimentalProtocol: self-splicing fitness, log relative to wild type (ln ratio); higher = more splicing; Tetrahymena group I intron in knt gene, E. coli kanamycin selection, DiMSum; sequences stand for … in CUCUCU…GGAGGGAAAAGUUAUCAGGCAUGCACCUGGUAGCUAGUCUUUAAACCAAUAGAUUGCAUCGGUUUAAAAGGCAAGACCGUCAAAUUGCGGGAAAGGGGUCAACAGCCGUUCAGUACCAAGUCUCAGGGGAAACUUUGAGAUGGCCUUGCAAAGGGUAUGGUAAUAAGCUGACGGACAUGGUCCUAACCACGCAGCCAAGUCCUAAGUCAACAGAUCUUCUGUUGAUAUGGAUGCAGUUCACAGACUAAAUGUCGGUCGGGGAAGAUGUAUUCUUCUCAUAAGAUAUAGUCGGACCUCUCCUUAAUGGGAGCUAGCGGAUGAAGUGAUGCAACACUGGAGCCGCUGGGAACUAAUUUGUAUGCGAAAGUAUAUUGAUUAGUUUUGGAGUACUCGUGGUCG;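 further: selection with 25 µg/mL kanamycin versus none on LB agar overnight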
# experimentalParameters: 37 °C
endpointLabel: self-splicing fitness (ln)
Give your answer as a number; write no unit.

In: If you can, please state the reported self-splicing fitness (ln) value of AUUGAGCAAUAUUACGGAUG .
Out: -2.69

In: Query CCCUAGCAAUAUUACGUAAG next
Out: -2.04

In: Query UAGUAGCAAUAUUACGGAAC next
Out: -3.42

In: Query GCAUAGCAAUAUUACGAUUG next
Out: -1.67

In: Query GCACAGCAAUAUUACGCCUC next
Out: -0.337

In: Query AUCCAGCAAUAUUACGCAAC next
Out: -0.741

In: Query ACGCAGCAAUAUUACGCCUU next
Out: 0.1

In: Query CGCAAGCAAUAUUACGAGGC next
Out: -2.84

In: Query ACUCAGCAAUAUUACGACCA next
Out: -0.64

In: Query AUAAAGCAAUAUUACGGGAU next
Out: -0.671

In: Query AUUCAGCAAUAUUACGGGGU next
Out: -2.85

In: Query AUUAAGCAAUAUUACGUAAU next
Out: -0.745

In: Query CAAAAGCAAUAUUACGAGCG next
Out: 0.342

In: Query GCUCAGCAAUAUUACGCCUU next
Out: 0.141

In: Query AGUAAGCAAUAUUACGUGUA next
Out: -1.8

In: Query CAGCAGCAAUAUUACGGAGU next
Out: -2.49

In: Query UUACAGCAAUAUUACGACGG next
Out: 0.113

In: Query GUCCAGCAAUAUUACGUGAC next
Out: -1.93

In: Query CGACAGCAAUAUUACGGUGU next
Out: -2.77

In: Query GAUUAGCAAUAUUACGCUUG next
Out: -0.445

In: Query AUCAAGCAAUAUUACGUGGG next
Out: -2.04

In: Query AUUCAGCAAUAUUACGCAAA next
Out: -0.821

In: Query AAUAAGCAAUAUUACGCCGU next
Out: -0.293

In: Query CUUUAGCAAUAUUACGAUCU next
Out: -2.48

In: Query CAAAAGCAAUAUUACGCACG next
Out: -0.59

In: Query GUUCAGCAAUAUUACGUCUG next
Out: -1.54

In: Query AAUUAGCAAUAUUACGUGGA next
Out: -2.27

In: Query CGUCAGCAAUAUUACGGUAG next
Out: 0.0634

In: Query ACUUAGCAAUAUUACGAAGC next
Out: -2.25

In: Query GUCCAGCAAUAUUACGGUCG next
Out: -0.131

In: Query AUCUAGCAAUAUUACGCUAG next
Out: -3.5

In: Query GUUCAGCAAUAUUACGAGUU next
Out: -0.77

In: Query UCUUAGCAAUAUUACGCAAU next
Out: -2.53

In: Query ACAGAGCAAUAUUACGGCAC next
Out: -2.62

----------
# experimentalProtocol: self-splicing fitness, log relative to wild type (ln ratio); higher = more splicing; Tetrahymena group I intron in knt gene, E. coli kanamycin selection, DiMSum; sequences stand for … in CUCUCU…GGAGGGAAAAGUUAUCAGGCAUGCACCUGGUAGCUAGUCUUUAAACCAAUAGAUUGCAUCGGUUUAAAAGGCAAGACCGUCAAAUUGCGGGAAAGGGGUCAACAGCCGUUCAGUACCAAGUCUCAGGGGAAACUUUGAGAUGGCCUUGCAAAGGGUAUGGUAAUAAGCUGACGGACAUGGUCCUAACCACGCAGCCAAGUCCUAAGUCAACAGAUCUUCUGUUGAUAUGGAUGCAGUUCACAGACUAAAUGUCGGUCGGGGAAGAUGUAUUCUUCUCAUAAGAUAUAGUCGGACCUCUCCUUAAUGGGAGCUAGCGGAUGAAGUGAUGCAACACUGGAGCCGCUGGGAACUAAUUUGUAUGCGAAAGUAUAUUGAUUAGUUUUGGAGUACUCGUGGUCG
# experimentalParameters: 37 °C
Provide the recorded self-splicing fitness (ln) for the entries that follow.
Give your answer as a number; write no unit.

In: If you can, please state the reported self-splicing fitness (ln) value of GCAUAGCAAUAUUACGCAGA .
Out: -2.06

In: Query GUUCAGCAAUAUUACGUCGC next
Out: -0.347

In: Query ACCUAGCAAUAUUACGGGAC next
Out: -1.36

In: Query UCUAAGCAAUAUUACGGACA next
Out: -1.18

In: Query AGGCAGCAAUAUUACGGGCA next
Out: -0.422

In: Query CGAAAGCAAUAUUACGGAAA next
Out: -2.49

In: Query GCAGAGCAAUAUUACGUGCA next
Out: -2.21

In: Query CGAAAGCAAUAUUACGAUAU next
Out: -1.27

In: Query AAGGAGCAAUAUUACGAGGA next
Out: -1.95

In: Query GGCGAGCAAUAUUACGGCGG next
Out: -1.28

In: Query CACAAGCAAUAUUACGGCGG next
Out: -0.181

In: Query AGGGAGCAAUAUUACGCGGA next
Out: -2.68

In: Query UCCGAGCAAUAUUACGGGAC next
Out: -2.2

In: Query UGGAAGCAAUAUUACGGAUG next
Out: -0.832

In: Query GGGCAGCAAUAUUACGUCGA next
Out: 0.711

In: Query UACCAGCAAUAUUACGGUUA next
Out: 0.23

In: Query CACGAGCAAUAUUACGGAUU next
Out: -2.47

In: Query AUCGAGCAAUAUUACGCAAU next
Out: -2.75

In: Query AAUAAGCAAUAUUACGUCGC next
Out: -1.21

In: Query UUUGAGCAAUAUUACGCCUU next
Out: -2.2

In: Query GGCAAGCAAUAUUACGGUAU next
Out: -0.119

In: Query GUGCAGCAAUAUUACGCCUU next
Out: -0.215

In: Query GCACAGCAAUAUUACGACAG next
Out: -1.8

In: Query GCGUAGCAAUAUUACGAGGU next
Out: -2.62

In: Query AUCAAGCAAUAUUACGCGAG next
Out: -0.224

In: Query ACAUAGCAAUAUUACGUAAG next
Out: -1.6

In: Query CACGAGCAAUAUUACGCCUC next
Out: -1.37

In: Query GGAGAGCAAUAUUACGACCU next
Out: -0.666

In: Query CAUAAGCAAUAUUACGCUUU next
Out: -2.73

In: Query ACUCAGCAAUAUUACGGCAA next
Out: -0.795

In: Query UGAUAGCAAUAUUACGUUCC next
Out: -1.1

In: Query GUAGAGCAAUAUUACGCACU next
Out: 0.332

In: Query CGUAAGCAAUAUUACGAACU next
Out: -0.364

In: Query GUGGAGCAAUAUUACGACCU next
Out: -0.548

----------
# experimentalProtocol: self-splicing fitness, log relative to wild type (ln ratio); higher = more splicing; Tetrahymena group I intron in knt gene, E. coli kanamycin selection, DiMSum; sequences stand for … in CUCUCU…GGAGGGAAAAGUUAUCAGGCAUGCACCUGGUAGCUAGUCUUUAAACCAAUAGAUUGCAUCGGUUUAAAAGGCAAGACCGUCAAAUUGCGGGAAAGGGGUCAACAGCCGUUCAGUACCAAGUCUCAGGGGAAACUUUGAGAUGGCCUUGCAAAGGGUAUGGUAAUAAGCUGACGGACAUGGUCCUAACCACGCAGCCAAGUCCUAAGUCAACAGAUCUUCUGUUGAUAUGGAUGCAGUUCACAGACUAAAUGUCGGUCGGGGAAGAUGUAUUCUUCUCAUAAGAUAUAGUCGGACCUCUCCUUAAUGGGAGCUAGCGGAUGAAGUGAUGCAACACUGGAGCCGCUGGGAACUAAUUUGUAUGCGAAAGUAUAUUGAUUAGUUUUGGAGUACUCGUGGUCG
# experimentalParameters: 37 °C
endpointLabel: self-splicing fitness (ln)
Give your answer as a number; write no unit.

In: If you can, please state the reported self-splicing fitness (ln) value of UAAUAGCAAUAUUACGAGUA .
Out: -0.79

In: Query CUGCAGCAAUAUUACGCAUU next
Out: -2.21

In: Query CAGAAGCAAUAUUACGGGCU next
Out: -1.83

In: Query AGUUAGCAAUAUUACGCCCG next
Out: 0.364

In: Query UAGCAGCAAUAUUACGUCGC next
Out: -2.73

In: Query GAGCAGCAAUAUUACGCAUA next
Out: -0.606

In: Query AUGUAGCAAUAUUACGAGCG next
Out: -1.8

In: Query GUACAGCAAUAUUACGAUCC next
Out: 0.81
